Measured Dissociation amount (RU) by item
Test System: T1, human FSTL1 (construct not stated) (human, UniProt Q12841 21-308)
T1 construct: also called human FSTL1 antigen; FSTL1 (R&D Systems, Inc. Cat#1694-FN-050)
T1 sequence: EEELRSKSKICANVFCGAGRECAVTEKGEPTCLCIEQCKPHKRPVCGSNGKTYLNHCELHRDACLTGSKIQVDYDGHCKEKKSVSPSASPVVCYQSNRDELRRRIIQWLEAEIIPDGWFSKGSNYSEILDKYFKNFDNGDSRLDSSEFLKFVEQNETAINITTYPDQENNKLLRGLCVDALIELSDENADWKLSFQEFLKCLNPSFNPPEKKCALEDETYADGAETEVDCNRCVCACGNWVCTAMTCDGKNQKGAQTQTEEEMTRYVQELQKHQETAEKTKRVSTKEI
Experiment Summary: SPR (Biacore T-200), captured antibody, human FSTL1 10 µg/ml; also: time not given here
The reply should contain only the number, in RU.

// known answers, use as guide
[
  {
    "Binder": "anti-FSTL1 antibody clone #33 (chicken-mouse chimeric antibody) (antibody, mouse IgG1, kappa, V domains shown) VH: AVTLDESGGGLQTPGGGLSLVCKASGFTFSSFNMNWVRQAPGKGLEYVAEISGTGSSTYYGSAVKGRATISRDNGQSTVRLQLNNLRAEDTATYFCARGDGAYSIDAWGHGTEVIVSS VL: ASTQPSSVSANPGETVEITCSGDSSYYGWFQQKSPGSAPVTVIYDNTNRPSDIPSRFSGSKSGSTATLTITGVRAEDEAVYYCGGYDSSTYDGIFGAGTTLTVLG",
    "Unit Info": "RU",
    "Dissociation amount (RU)": 4.1
  },
  {
    "Binder": "anti-FSTL1 antibody clone #5-8 (chicken-mouse chimeric antibody) (antibody, mouse IgG1, kappa, V domains shown) VH: AVTLDESGGGLQTPGGGLSLVCKGSGFTFSSFNMFWVRQAPGKGLEWVAGIGKDGVPKYGTAVDGRATISKDNGQSTMRLQLNNLRAEDTGTYFCAKAAGGCSYDWCGIYTGDIDTWGHGTEVIVSS VL: ASTQPSSVSANPGEAVKITCSGGSGSYYGWYQQKSPGSAPVTVIYNNNQRPSDIPSRFSGSKSGSTATLTITGVQAEDEAVYFCGGYDSSTGHGGIFGAGTTLTVLG",
    "Unit Info": "RU",
    "Dissociation amount (RU)": 3.4
  },
  {
    "Binder": "anti-FSTL1 antibody clone #5-43 (chicken-mouse chimeric antibody) (antibody, mouse IgG1, kappa, V domains shown) VH: AVTLDESGGGLQTPGGGLSLVCKGSGFTFSSFNMFWVRQAPGKGLEWVAGIGKDGGTGYGAAVDGRATISKDSGQSTLRLQLNNLRAEDTGTYYCAKAAGGCSYDWCGAYTGDIDTWGHGTEVIVSS VL: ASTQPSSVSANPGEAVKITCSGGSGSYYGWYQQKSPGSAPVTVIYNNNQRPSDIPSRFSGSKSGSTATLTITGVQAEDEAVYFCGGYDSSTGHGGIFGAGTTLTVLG",
    "Unit Info": "RU",
    "Dissociation amount (RU)": 3.1
  }
]

Could you now look at the following binder, please?
Please give the documented Dissociation amount (RU) of anti-FSTL1 antibody clone #10 (chicken-mouse chimeric antibody) (antibody, mouse IgG1, kappa, V domains shown) VH: AVTLDESGGGLQTPGGALSLVCKASGFFFFRIYDMGWVRQAPGKGLEWVAGIDDYGRYTGYGSAVKGRATISRDNGQSTVRLQLNNLRAEDTGTYYCARGAGTGCNSAGCGAYAGSIDAWGHGTEVIVSS VL: ASTQPSSVSANPGETVKLTCSGGGSRYGWYQQKSPGSAPVTVIYYNDKRPSDIPSRFSGSKSGSTATLTITGVQAEDEAVYFCGGYDGSRDAGIFGAGTTLTVLG
6
